Measured values drawn from paper PMC2756588 for this set.

The following binders are listed with their measured SPOT intensity values.
- TARGET: T1, Sla1-2, P32790
- T1 sequence (P32790 60-140, looked up): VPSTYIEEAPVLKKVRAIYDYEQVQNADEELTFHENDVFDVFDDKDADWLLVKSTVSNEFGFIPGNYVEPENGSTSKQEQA
- PROTOCOL_DESCRIPTION: SPOT array
- STUDY_CONDITIONS: median of control spots 712
Simply state the number, no unit and no words.

BINDER | RECORDED_VALUE
SSAAPPPPPRRATPE | 0

The reported SPOT intensity of the binder SSSSTPPTLPPRRIE was 1

For record LASNSPPVYPKRIRH the listed SPOT intensity is 0

Record summary for HAPPLPPTAPPPPSL : reported SPOT intensity = 0
